Origin of the recorded values: patent US6858638B2

ASSAYED_TARGET: human IGF1R cytoplasmic domain (Homo sapiens, UniProt P08069)
Construct: The human IGF1R cytoplasmic domain was cloned; made in house; host or cells: SF21 insect cells (baculovirus)
Sequence (P08069 960-1367 limits assumed): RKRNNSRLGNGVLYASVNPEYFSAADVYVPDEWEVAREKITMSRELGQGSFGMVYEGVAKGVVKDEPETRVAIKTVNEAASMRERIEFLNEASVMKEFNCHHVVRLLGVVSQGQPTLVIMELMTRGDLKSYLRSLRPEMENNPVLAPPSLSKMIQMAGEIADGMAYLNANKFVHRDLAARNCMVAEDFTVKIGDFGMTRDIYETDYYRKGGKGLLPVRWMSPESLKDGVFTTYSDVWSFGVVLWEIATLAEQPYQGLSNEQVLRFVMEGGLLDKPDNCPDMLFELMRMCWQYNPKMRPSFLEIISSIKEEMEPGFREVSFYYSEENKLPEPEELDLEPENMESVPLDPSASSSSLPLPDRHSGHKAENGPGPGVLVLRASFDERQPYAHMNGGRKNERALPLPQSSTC
PROTOCOL_NOTES: IGF1R autophosphorylation inhibition, time resolved fluorescence (HTRF) assay
Format: biochemical
MEASUREMENT_CONTEXT: 10 μM; read-out: IGF1R % inhib at 10 μM
Protocol: The inhibitory activity of the compounds on IGF1R is determined by measuring the inhibition of the autophosphorylation of the enzyme using a time resolved fluorescence (HTRF) assay. […] The kinase activity was determined by incubating the enzyme with various concentrations of test compound in a 50 mM Hepes buffer, pH 7.5, containing 5 mM MnCl2, 50 mM NaCl, 3% glycerol, 0.025% Tween 20 and 120 mM of ATP. […]
ASSAY_READOUT: inhibition at 10 µM (%)
Number in %, nothing else.

Solved entries:
Answer with the recorded inhibition at 10 µM of CS(=O)(=O)c1ccccc1S(=O)(=O)Nc1ccc2[nH]nc(-c3ccncc3)c2c1 [Example 54] only.
87

Answer with the recorded inhibition at 10 µM of CS(=O)(=O)c1ccccc1S(=O)(=O)Nc1ccc2[nH]nc(-c3cccc(F)c3F)c2c1 [Example 221] only.
50

Answer with the recorded inhibition at 10 µM of CCCCS(=O)(=O)Nc1ccc2[nH]nc(-c3ccccc3)c2c1 [Example 129] only.
30

Next compound, please.
Answer with the recorded inhibition at 10 µM of CS(=O)(=O)c1ccccc1S(=O)(=O)Nc1ccc2[nH]nc(-c3cccc(N)c3)c2c1 [Example 62] only.
88

---

ASSAYED_TARGET: Aurora2 kinase (Homo sapiens, UniProt O14965)
Construct: A complete recombinant Aurora2 enzyme; His tag (N); made in house; host or cells: E. coli
Sequence (O14965 whole entry): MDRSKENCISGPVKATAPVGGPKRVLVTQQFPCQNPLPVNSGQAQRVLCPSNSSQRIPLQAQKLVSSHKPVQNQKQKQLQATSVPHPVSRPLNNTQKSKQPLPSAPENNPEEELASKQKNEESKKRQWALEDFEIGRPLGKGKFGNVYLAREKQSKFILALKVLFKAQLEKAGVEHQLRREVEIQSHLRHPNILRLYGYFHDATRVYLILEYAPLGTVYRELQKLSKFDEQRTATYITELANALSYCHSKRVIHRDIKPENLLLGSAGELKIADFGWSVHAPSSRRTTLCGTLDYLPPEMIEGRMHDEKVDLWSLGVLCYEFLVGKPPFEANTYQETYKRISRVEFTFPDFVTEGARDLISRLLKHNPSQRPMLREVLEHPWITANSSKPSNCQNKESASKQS
PROTOCOL_NOTES: Aurora2 kinase radioactivity scintillation assay using nickel chelate (NuMA substrate)
Format: biochemical
MEASUREMENT_CONTEXT: 10 μM; read-out: Aurora2 % inhib at 10 μM
ASSAY_READOUT: inhibition at 10 µM (%)
Number in %, nothing else.

Solved entries:
Answer with the recorded inhibition at 10 µM of `Cc1n[nH]c2ccc(NS(=O)(=O)c3ccccc3S(C)(=O)=O)cc12` only.
90

Answer with the recorded inhibition at 10 µM of `CS(=O)(=O)c1ccccc1S(=O)(=O)Nc1ccc2[nH]nc(-c3ccc(Cl)cc3)c2c1` only.
100

Answer with the recorded inhibition at 10 µM of `CCc1ccc(-c2n[nH]c3ccc(NS(=O)(=O)c4ccccc4S(C)(=O)=O)cc23)cc1` only.
88

Answer with the recorded inhibition at 10 µM of `Nc1n[nH]c2ccc(NS(=O)(=O)c3cc(F)cc(F)c3)cc12` only.
50

Answer with the recorded inhibition at 10 µM of `CS(=O)(=O)c1ccc(-c2n[nH]c3ccc(NS(=O)(=O)c4ccccc4S(C)(=O)=O)cc23)cc1` only.
95

Answer with the recorded inhibition at 10 µM of `CS(=O)(=O)c1ccccc1S(=O)(=O)Nc1ccc2[nH]nc(-c3cccc4ccccc34)c2c1` only.
78

Answer with the recorded inhibition at 10 µM of `CS(=O)(=O)c1ccccc1S(=O)(=O)Nc1ccc2[nH]nc(-c3ccc4ccccc4c3)c2c1` only.
100

Answer with the recorded inhibition at 10 µM of `O=S(=O)(Nc1ccc2[nH]nc(-c3ccccc3)c2c1)c1ccc(OC(F)(F)F)cc1` only.
26

Answer with the recorded inhibition at 10 µM of `CS(=O)(=O)c1ccccc1S(=O)(=O)Nc1ccc2[nH]nc(Cl)c2c1` only.
86

Answer with the recorded inhibition at 10 µM of `CS(=O)(=O)c1ccccc1S(=O)(=O)Nc1ccc2[nH]ncc2c1` only.
76

Next:
Answer with the recorded inhibition at 10 µM of `Cc1cccc(-c2n[nH]c3ccc(NS(=O)(=O)c4ccccc4S(C)(=O)=O)cc23)c1` only.
92

Answer with the recorded inhibition at 10 µM of O=S(=O)(Nc1ccc2[nH]ncc2c1)c1ccccc1 [Example 24, N-(1H-Indazol-5-yl)benzenesulfonamide] only.
60

Answer with the recorded inhibition at 10 µM of `O=S(=O)(Nc1ccc2[nH]nc(-c3ccccc3)c2c1)c1ccccc1F` only.
100
